Recorded values, source patent US20220298237A1.

Molecular target: T1, oligopeptide ATYPSGHLDM (SEQ ID NO: 1) (human and mouse)
T1 construct: Synthetic peptide; positions 148 to 157 of the human AQP3 polypeptide, identical in mouse; also called peptide used for immunization; oligopeptide 5
T1 peptide: ATYPSGHLDM
Experiment: ELISA on the immunogen peptide (FIG. 2)

| Binder | binding result |
| --- | --- |
| Antibody B (antibody, mouse IgG2a, kappa, V domains shown, also called anti AQP3 antibody B) VH: EVQLVESGGDLVKPGGSLKLSCAASGFTFSSYGMSWVRQTPDKRLEWVATISRGSIYTYYPDSVKGRFTISRDNAKNTLYLQMSSLKSEDTAMYYCARLSLYDYDGARYTMDYWGQGTSVTVSS VL: DIVMTQSPKFMSTSVGDRVSITCKASQDVGTAVAWYQQKPGQSPKLLIYWASTRHTGVPDRFTGSGSGTDFTLTISNVQSEDLADYFCQQYSSYHTFGAGTKLELKR | binds |
| Antibody H (antibody, mouse IgG2a, kappa, V domains shown, also called anti AQP3 antibody H) VH: EVKLVESGGDLVKPGGSLKLSCAASGFTFSSYGMSWVRQTPDKRLEWVATISRRSIYTYYPDSVQGRFTISRDNAKNTLYLQMSSLKSEDTAMYYCARLSLYDYDGARYTMDYWGQGTSVTVSS VL: DIKMTQSPKFMSTSVGDRVSITCKASQDVGTAVAWYQQKPGQSPKLLIYWASTRHTGVPDRFTGSGSGTDFTLTISNVQSEDLADYFCQQYSSYHTFGAGTKLEIKR | binds |
